# assayMethodText: Apprent permeability in RRCK cells
# Assay type: ADME, cell-based, Canis lupus familiaris, MDCKII-LE
# conditionLabel: dog, MDCK
measurementLabel: Papp (×10⁻⁶ cm/s)
Numeric answer only, unit ×10⁻⁶ cm/s assumed.

// lookup Papp for O=C(O[C@H](CO)C(F)(F)F)N1C[C@@H]2[C@H](C1)[C@H]2c1ccn(-c2ccc(F)cc2)n1
21

###

# assayMethodText: Kinetic solubility of the compound at pH 7.4
# Format: physicochemical
# conditionLabel: buffer, read-out: Kinetic_solubility
measurementLabel: solubility kinetic (µM)
Entry rule: numbers only, all in µM.

I would be grateful if you could share the reported solubility kinetic for O=C(O[C@H](CO)C(F)(F)F)N1C[C@@H]2[C@H](C1)[C@H]2c1ccn(-c2ccc(F)cc2)n1 .
115

###

# assayMethodText: Volume of distribution in Beagle dog at 1 mg/kg, iv administered via cephalic vein measured up to 24 hrs post dose by HPLC-MS/MS analysis
# Assay type: ADME, organism-based, Canis lupus familiaris
# conditionLabel: in vivo
measurementLabel: Vd (L/kg)
Report the figure in L/kg without appending any unit label.

Can you look up the measured Vd of O=C(O[C@H](CO)C(F)(F)F)N1C[C@@H]2[C@H](C1)[C@H]2c1ccn(-c2ccc(F)cc2)n1 for me?
1.6

###

# assayMethodText: Half life in Wistar Hannover rat at 1 mg/kg, iv administered as bolus dose via jugular vein cannula measured up to 24 hrs post dose by HPLC-MS/MS analysis
# Type: ADME, organism-based
# conditionLabel: in vivo
measurementLabel: half-life (h)
Express it in h; write the number only.

Record request: half-life value, item O=C(O[C@H](CO)C(F)(F)F)N1C[C@@H]2[C@H](C1)[C@H]2c1ccn(-c2ccc(F)cc2)n1
1.3

###

# assayMethodText: Plasma clearance in non-human primate at 1 mg/kg, iv administered via cephalic vein measured up to 24 hrs post dose by HPLC-MS/MS analysis
# Type: ADME, organism-based, Macaca mulatta
# conditionLabel: rhesus monkey
measurementLabel: clearance (L/h/kg)
All answers are understood in L/h/kg, so give the number only.

Name the reported clearance value associated with the compound O=C(O[C@H](CO)C(F)(F)F)N1C[C@@H]2[C@H](C1)[C@H]2c1ccn(-c2ccc(F)cc2)n1
0.96

###

# assayMethodText: Ratio of unbound AUClast in C57BL6J mouse brain to plasma at 1 mg/kg, sc measured up to 24 hrs post dose by HPLC-MS/MS analysis
# conditionLabel: brain and plasma
measurementLabel: Kp uu at 24 h

State the recorded Kp uu at 24 h for this entry: O=C(O[C@H](CO)C(F)(F)F)N1C[C@@H]2[C@H](C1)[C@H]2c1ccn(-c2ccc(F)cc2)n1
1.4

###

Answer each item with its documented IC50.
# assaySystem: Fatty-acid amide hydrolase 1 (Homo sapiens)
# Sequence (O00519 whole entry): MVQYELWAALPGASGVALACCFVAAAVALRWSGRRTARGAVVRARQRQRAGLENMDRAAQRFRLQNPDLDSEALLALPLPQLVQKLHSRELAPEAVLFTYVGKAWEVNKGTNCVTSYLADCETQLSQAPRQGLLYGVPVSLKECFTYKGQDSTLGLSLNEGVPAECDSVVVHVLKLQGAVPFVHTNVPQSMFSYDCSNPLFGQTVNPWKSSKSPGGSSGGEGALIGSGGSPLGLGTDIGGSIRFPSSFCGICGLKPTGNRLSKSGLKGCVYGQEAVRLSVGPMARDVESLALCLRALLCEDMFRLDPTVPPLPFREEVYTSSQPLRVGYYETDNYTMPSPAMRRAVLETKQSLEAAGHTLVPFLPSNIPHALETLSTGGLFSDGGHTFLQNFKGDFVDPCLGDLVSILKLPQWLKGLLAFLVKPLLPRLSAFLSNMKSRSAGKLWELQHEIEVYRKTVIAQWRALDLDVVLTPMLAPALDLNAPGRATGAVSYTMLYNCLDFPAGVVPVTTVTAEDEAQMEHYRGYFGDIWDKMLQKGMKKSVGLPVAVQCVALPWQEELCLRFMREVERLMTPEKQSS
# assayMethodText: Inhibition of recombinant human FAAH using fluorogenic arachidonoyl-AMC as substrate preincubated for 30 mins followed by substrate addition measured after 60 mins by fluorescence based assay

Field request: IC50 | item: O=C(OC(CO)C(F)(F)F)N1C[C@@H]2[C@H](C1)[C@H]2c1ccn(-c2ccc(F)cc2)n1 (stereo not given in full)
14 µM

Tell me the measured IC50 of O=C(Oc1ccc([N+](=O)[O-])cc1)N1CCC(C(O)(c2ccc3c(c2)OCO3)c2ccc3c(c2)OCO3)CC1 , please.
> 11 µM

I have this compound here, O=C(OCC(F)(F)F)N1C[C@@H]2[C@H](C1)[C@H]2c1ccn(-c2ccc(F)cc2)n1 , and I need its recorded IC50.
0.97 µM

Entry COC[C@@H](OC(=O)N1C[C@@H]2[C@H](C1)[C@H]2c1ccn(-c2ccc(F)cc2)n1)C(F)(F)F : reported IC50 = ?
1.94 µM

Please look up its IC50: O=C(OC[C@@H](O)C(F)(F)F)N1C[C@@H]2[C@H](C1)[C@H]2c1ccn(-c2ccc(F)cc2)n1
> 30 µM

###

# assayMethodText: Unbound fraction in C57BL6J mouse brain at 1 mg/kg, sc measured up to 24 hrs post dose by HPLC-MS/MS analysis
# Assay type: ADME, organism-based
measurementLabel: fraction unbound at 24 h
Returns: the value as a bare number; no unit string appended.

Can you look up the measured fraction unbound at 24 h of O=C(O[C@H](CO)C(F)(F)F)N1C[C@@H]2[C@H](C1)[C@H]2c1ccn(-c2ccc(F)cc2)n1 for me?
0.00775

###

# assaySystem: CYP2C8 (Homo sapiens)
# Sequence (P10632 whole entry): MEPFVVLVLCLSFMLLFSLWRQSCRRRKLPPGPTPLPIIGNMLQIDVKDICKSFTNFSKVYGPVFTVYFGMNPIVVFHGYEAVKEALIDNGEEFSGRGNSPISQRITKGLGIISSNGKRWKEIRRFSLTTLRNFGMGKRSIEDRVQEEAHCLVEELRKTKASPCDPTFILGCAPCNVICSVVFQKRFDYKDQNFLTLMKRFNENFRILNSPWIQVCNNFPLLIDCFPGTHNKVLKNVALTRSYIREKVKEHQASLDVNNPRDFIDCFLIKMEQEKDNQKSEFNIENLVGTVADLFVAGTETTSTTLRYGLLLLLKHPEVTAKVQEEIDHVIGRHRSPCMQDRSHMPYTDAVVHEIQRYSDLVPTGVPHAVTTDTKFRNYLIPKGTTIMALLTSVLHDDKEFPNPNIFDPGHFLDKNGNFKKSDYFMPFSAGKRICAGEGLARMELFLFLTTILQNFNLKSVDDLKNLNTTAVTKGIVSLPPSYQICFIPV
# assayMethodText: Inhibition of CYP2C8 (unknown origin) at 3 uM
# Type: ADME
measurementLabel: inhibition at 3 µM

What does the record list as inhibition at 3 µM for O=C(O[C@H](CO)C(F)(F)F)N1C[C@@H]2[C@H](C1)[C@H]2c1ccn(-c2ccc(F)cc2)n1 ?
< 10%

###

# assayMethodText: Intrinsic clearance in human hepatocytes in presence of CYP inhibitor ABT
# Format: ADME, cell-based, Hepatocyte
# conditionLabel: with ABT (CYP inhibitor), concentration not stated, read-out: CLH
measurementLabel: CLint scaled (mL/min/kg)
Express the result in mL/min/kg but write the number alone.

Recorded CLint scaled of O=C(O[C@H](CO)C(F)(F)F)N1C[C@@H]2[C@H](C1)[C@H]2c1ccn(-c2ccc(F)cc2)n1 , please.
37

###

# assaySystem: Monoglyceride lipase (Homo sapiens) (UniProt Q99685)
# Sequence (Q99685 whole entry): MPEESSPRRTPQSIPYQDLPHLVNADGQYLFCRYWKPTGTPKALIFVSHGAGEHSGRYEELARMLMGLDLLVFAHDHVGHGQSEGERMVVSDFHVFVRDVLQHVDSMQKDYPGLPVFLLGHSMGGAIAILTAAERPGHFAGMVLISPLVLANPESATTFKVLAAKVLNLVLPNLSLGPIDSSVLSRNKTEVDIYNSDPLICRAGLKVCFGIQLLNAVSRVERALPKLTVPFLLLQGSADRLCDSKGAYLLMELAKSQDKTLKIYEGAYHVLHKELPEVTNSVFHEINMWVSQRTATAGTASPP
# assayMethodText: Inhibition of recombinant human MAGL assessed as Kintact to Ki ratio using fluorogenic-7HCA as substrate measured after 60 mins by fluorescence based assay
Label rule, in plain words: Ratio of 2000 M⁻¹ s⁻¹ and up is class 1, under 2000 M⁻¹ s⁻¹ is class 0.

In plain terms: is recorded Ratio at least 2000 M⁻¹ s⁻¹ for O=C(ON1C(=O)CCC1=O)N1C[C@@H]2[C@H](C1)[C@H]2c1ccn(-c2ccc(F)cc2)n1 ?
class 0

# check: Ratio of COC[C@@H](OC(=O)N1C[C@@H]2[C@H](C1)[C@H]2c1ccn(-c2ccc(F)cc2)n1)C(F)(F)F is greater than or equal to 2000 M⁻¹ s⁻¹
class 0

Could you verify whether the entry O=C(OCC(F)(F)F)N1C[C@@H]2[C@H](C1)[C@H]2c1ccn(-c2ccc(F)cc2)n1 shows Ratio of no less than 2000 M⁻¹ s⁻¹?
class 0

Entry O=C(O[C@H](CCO)C(F)(F)F)N1C[C@@H]2[C@H](C1)[C@H]2c1ccn(-c2ccc(F)cc2)n1 : is its Ratio no less than 2000 M⁻¹ s⁻¹?
class 1

Kindly determine if Ratio recorded for O=C(Oc1ccc([N+](=O)[O-])cc1)N1C[C@@H]2[C@H](C1)[C@H]2c1ccn(-c2ccc(F)cc2)n1 is above or exactly 2000 M⁻¹ s⁻¹.
class 1

Could you verify whether the entry O=C(OC[C@@H](O)C(F)(F)F)N1C[C@@H]2[C@H](C1)[C@H]2c1ccn(-c2ccc(F)cc2)n1 shows Ratio of no less than 2000 M⁻¹ s⁻¹?
class 0

Hi team, for O=C(O[C@H](CF)C(F)(F)F)N1C[C@@H]2[C@H](C1)[C@H]2c1ccn(-c2ccc(F)cc2)n1 , is the recorded Ratio at or above 2000 M⁻¹ s⁻¹?
class 0

Check the entry O=C(OC(C(F)(F)F)C(F)(F)F)N1C[C@@H]2[C@H](C1)[C@H]2c1ccn(-c2ccc(F)cc2)n1 : does Ratio equal or exceed 2000 M⁻¹ s⁻¹?
class 1

###

# assaySystem: UniProt:Q99685
# assayMethodText: Inhibition of recombinant human MAGL using fluorogenic-7HCA as substrate preincubated for 30 mins followed by substrate addition measured after 60 mins by fluorescence based assay
measurementLabel: pIC50
Note on pIC50: it is the negative log10 of concentration, concentration in mol/L.

Record O=C(OC[C@@H](O)C(F)(F)F)N1C[C@@H]2[C@H](C1)[C@H]2c1ccn(-c2ccc(F)cc2)n1 : what is its pIC50 with UniProt:Q99685?
6.88

Request - read-out pIC50 | tested on UniProt:Q99685 | compound O=C(OCC(F)(F)F)N1C[C@@H]2[C@H](C1)[C@H]2c1ccn(-c2ccc(F)cc2)n1
6.35
